Below, each entry is listed with its recorded IC50, Protease Assay-H2-Opt peptide.
# subject_of_test: HTRA1 (construct not given) (Homo sapiens (Human), UniProt Q92743 23-480, limits assumed)
# Sequence (Q92743 23-480 limits assumed): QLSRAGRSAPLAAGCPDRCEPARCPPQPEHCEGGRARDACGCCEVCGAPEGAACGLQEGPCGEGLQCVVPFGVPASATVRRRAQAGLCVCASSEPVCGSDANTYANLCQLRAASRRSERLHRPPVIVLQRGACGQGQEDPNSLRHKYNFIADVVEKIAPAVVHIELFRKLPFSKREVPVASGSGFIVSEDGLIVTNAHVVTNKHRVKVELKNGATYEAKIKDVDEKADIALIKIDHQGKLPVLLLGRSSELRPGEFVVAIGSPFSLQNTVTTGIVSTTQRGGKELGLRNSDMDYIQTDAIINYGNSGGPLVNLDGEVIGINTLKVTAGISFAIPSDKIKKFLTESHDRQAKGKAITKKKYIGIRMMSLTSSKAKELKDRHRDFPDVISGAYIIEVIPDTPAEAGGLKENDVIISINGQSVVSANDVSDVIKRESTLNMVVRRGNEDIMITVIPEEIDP
# assay_info: cell-based or functional assay
Reply numerically in nM, unit not repeated.

Some binders with known IC50, Protease Assay-H2-Opt peptide results, for comparison:
binder	IC50, Protease Assay-H2-Opt peptide (nM)
antibody 9F8 (antibody, V domains shown, Mouse hybridoma monoclonal antibody) VH: QVQLQQPGAELVRPGSSVKLSCKASGYAFTTYWMHWVKQRPIQGLEWIGNIDPSDSETHYNQKFRDKATLTVDKSSSTAYMQLSSLTSEDSAVYYCARDYGAFDVWGTGTTVTVSS VL: QAVVTQESALTTSSGETVTLTCRSSTGAVTTRNFASWVQEKPDHLFTGLIGGTNNRAPGVPARFSGSLIGDKAALTITGAQTEDEAIYFCALWYSNLWVFGGGTKLTVL	0.12
antibody 24F7 (antibody, V domains shown, Mouse hybridoma monoclonal antibody; also called parental 24F7 antibody) VH: QVQLQQSGAELVRPGASVKLSCKASGYTFTDYEMHWVKQTPVHGLEWIGAIDPETGGTAYNQKFKGKATLTADKSSSTAYMELRSLTSEDSAVYYCTREGYSYDGGGYYFDYWGQGTTLTVSS VL: QIVLTQSPAIMSASPGEKVTMTCSVSSSVSYMYWYQQKPGSSPRLLIYDTSNLASGVPVRFSGSGSGTSYSLTISRMEAEDAATYYCQQWSSYPTFGGGTKLEIK	0.12

Could you now look at the following binder, please?
Q: Bench note: what IC50, Protease Assay-H2-Opt peptide did antibody 65G8 (antibody, V domains shown, Mouse hybridoma monoclonal antibody) VH: QVQLQQSGPQLVRPGASVKISCKASGYSFTSYWMHWVKQRPGQGLEWIGMIDPSDSETRLNQKFKDKATLTIDKSSSTAYMQLSSPTSEDSAVYYCTRDYFDYWGQGTTLTVSS VL: QIVLTQSPAIMSTSPGEKVTMTCSASSSVSYMYWYQQKPGSSPRLLIYDTSNLASGVPVRFSGSGSGTSYSLTISRMEAEDAATYYCQQWSSYPYTFGGGTKLEIK show?
A: 0.09

Entry source: patent US20220251241A1
